These measurements were taken from paper PMC7531004.

Test system: P388 mouse leukemia cells
conditionDetails: 92 h
Description: Each type of assay must be simplified and miniaturized to assess the activities of the library peptides in a 96-well format for the high-throughput screening. […] Mammalian cytotoxicity assay of bead-derived peptides . P388 cells were obtained from Institute of […] for 92 h, the numbers of viable cells were determined by […] at 37 °C. The absorbance of each well at 415 nm was measured using a Benchmark microplate reader (Bio-Rad). The cytotoxicities were evaluated as cell viability (%). […]
Where a SMILES comes first, the peptide text is derived from it. [ ]: non-standard residue; d: D form. The star is where a group is joined. NHCH2CH2OH = OCCN*; For = O=C*
assayReadout: cell viability/% (%)
Answers are plain numbers, in %.

{"compound": "CC(C)[C@H](NC=O)C(=O)NCC(=O)N[C@@H](C)C(=O)N[C@@H](C(=O)N[C@@H](C)C(=O)N[C@@H](C(=O)N[C@H](C(=O)N[C@@H](C(=O)N[C@@H](Cc1c[nH]c2ccccc12)C(=O)N[C@@H](C(=O)N[C@@H](Cc1c[nH]c2ccccc12)C(=O)N[C@@H](C(=O)N[C@@H](Cc1c[nH]c2ccccc12)C(=O)N[C@@H](C(=O)N[C@@H](Cc1c[nH]c2ccccc12)C(=O)NCCO)C(C)C)C(C)C)C(C)C)C(C)C)C(C)C)C(C)C)[C@H](C)O [compound 11453] (For-VGA[dT]A[dV]V[dV]W[dV]W[dV]W[dV]W-NHCH2CH2OH)", "cell viability/% (%)": 49.2}

Now look at this one.
Input line: Request - read-out cell viability/% | tested on P388 mouse leukemia cells | compound CNC(=O)C[C@@H](NC(=O)[C@@H](NC(=O)[C@H](NC(=O)[C@H](C)NC(=O)[C@@H](CC(C)C)NC(=O)[C@H](C)NC(=O)CNC(=O)[C@@H](NC=O)C(C)C)C(C)C)C(C)C)C(=O)N[C@@H](Cc1c[nH]c2ccccc12)C(=O)N[C@H](CC(C)C)C(=O)N[C@@H](Cc1c[nH]c2ccccc12)C(=O)N[C@H](CC(C)C)C(=O)N[C@@H](Cc1c[nH]c2ccccc12)C(=O)N[C@H](CC(C)C)C(=O)N[C@@H](Cc1c[nH]c2ccccc12)C(=O)NCCO [compound 9336] (For-VGA[dL]A[dV]V[dD](NHMe)W[dL]W[dL]W[dL]W-NHCH2CH2OH)
Output line: 100.0

* * *

Tested on: Streptococcus pyogenes SSI-9
testProtocol: Antibacterial activity assay of bead-derived peptides (three concentrations)
Type: cell-based
Parameters: key: +++: inhibition by the 640-fold diluted peptide solution; ++: inhibition by the 160-fold diluted solution; +: inhibition by the 40-fold diluted solution; -: no inhibition
conditionDetails: S. pyogenes, bead-derived peptide solution, three concentrations
Method: Each type of assay must be simplified and miniaturized to assess the activities of the library peptides in a 96-well format for the high-throughput screening. Next, the peptides in groups A and B were subjected to the antibacterial assay and structural determination. Three peptide concentrations were applied to evaluate the growth inhibition of S. pyogenes and determine the antibacterial activity. […] Finally, the structures of the peptides were determined. […]
Where a SMILES comes first, the peptide text is derived from it. [ ]: non-standard residue; d: D form. The star is where a group is joined. NHCH2CH2OH = OCCN*; For = O=C*

{"compound": "CC(C)C[C@@H](NC(=O)[C@H](Cc1c[nH]c2ccccc12)NC(=O)[C@H](NC(=O)[C@H](Cc1c[nH]c2ccccc12)NC(=O)[C@H](NC(=O)[C@H](Cc1c[nH]c2ccccc12)NC(=O)[C@@H](CC(C)C)NC(=O)[C@@H](NC(=O)[C@H](NC(=O)[C@H](C)NC(=O)[C@H](NC(=O)[C@H](C)NC(=O)CNC(=O)[C@@H](NC=O)C(C)C)[C@H](C)O)C(C)C)C(C)C)C(C)C)C(C)C)C(=O)N[C@@H](Cc1c[nH]c2ccccc12)C(=O)NCCO [compound 10500] (For-VGA[dT]A[dV]V[dL]W[dV]W[dV]W[dL]W-NHCH2CH2OH)", "measurementTarget": "Streptococcus pyogenes SSI-9", "antibacterial activity": "-"}
{"compound": "CC(C)C[C@@H](NC(=O)[C@H](Cc1c[nH]c2ccccc12)NC(=O)[C@H](NC(=O)[C@H](Cc1c[nH]c2ccccc12)NC(=O)[C@H](NC(=O)[C@H](Cc1c[nH]c2ccccc12)NC(=O)[C@H](NC(=O)[C@@H](NC(=O)[C@H](NC(=O)[C@H](C)NC(=O)[C@H](NC(=O)[C@H](C)NC(=O)CNC(=O)[C@@H](NC=O)C(C)C)[C@H](C)O)C(C)C)C(C)C)C(C)C)C(C)C)C(C)C)C(=O)N[C@@H](Cc1c[nH]c2ccccc12)C(=O)NCCO [compound 6606] (For-VGA[dT]A[dV]V[dV]W[dV]W[dV]W[dL]W-NHCH2CH2OH)", "measurementTarget": "Streptococcus pyogenes SSI-9", "antibacterial activity": "-"}

* * *

Test system: Streptococcus pyogenes SSI-9
testProtocol: Antibacterial activity assay of bead-derived peptides (three concentrations)
Format: cell-based
Parameters: key: +++: inhibition by the 640-fold diluted peptide solution; ++: inhibition by the 160-fold diluted solution; +: inhibition by the 40-fold diluted solution; -: no inhibition
conditionDetails: S. pyogenes, bead-derived peptide solution, three concentrations
Where a SMILES comes first, the peptide text is derived from it. [ ]: non-standard residue; d: D form. The star is where a group is joined. NHCH2CH2OH = OCCN*; For = O=C*

{"molecule": "CC(C)C[C@@H](NC(=O)[C@H](Cc1c[nH]c2ccccc12)NC(=O)[C@H](NC(=O)[C@H](Cc1c[nH]c2ccccc12)NC(=O)[C@H](NC(=O)[C@@H](NC(=O)[C@H](NC(=O)[C@H](C)NC(=O)[C@H](NC(=O)[C@H](C)NC(=O)CNC(=O)[C@@H](NC=O)C(C)C)C(C)C)C(C)C)C(C)C)C(C)C)C(C)C)C(=O)N[C@@H](Cc1c[nH]c2ccccc12)C(=O)N[C@@H](C(=O)N[C@@H](Cc1c[nH]c2ccccc12)C(=O)NCCO)C(C)C [compound 6165] (For-VGA[dV]A[dV]V[dV]W[dV]W[dL]W[dV]W-NHCH2CH2OH)", "antibacterial activity": "-"}
{"molecule": "CNC(=O)C[C@@H](NC(=O)[C@H](Cc1c[nH]c2ccccc12)NC(=O)[C@@H](CC(C)C)NC(=O)[C@H](Cc1c[nH]c2ccccc12)NC(=O)[C@H](NC(=O)[C@H](Cc1c[nH]c2ccccc12)NC(=O)[C@H](NC(=O)[C@@H](NC(=O)[C@@H](CC(C)C)NC(=O)[C@H](C)NC(=O)[C@@H](CC(C)C)NC(=O)[C@H](C)NC(=O)CNC(=O)[C@@H](NC=O)C(C)C)C(C)C)C(C)C)C(C)C)C(=O)N[C@@H](Cc1c[nH]c2ccccc12)C(=O)NCCO [compound 10678] (For-VGA[dL]A[dL]V[dV]W[dV]W[dL]W[dD](NHMe)W-NHCH2CH2OH)", "antibacterial activity": "-"}
{"molecule": "CC(C)C[C@@H](NC(=O)[C@H](C)NC(=O)CNC(=O)[C@@H](NC=O)C(C)C)C(=O)N[C@@H](C)C(=O)N[C@@H](C(=O)N[C@H](C(=O)N[C@@H](C(=O)N[C@@H](Cc1c[nH]c2ccccc12)C(=O)N[C@@H](C(=O)N[C@@H](Cc1c[nH]c2ccccc12)C(=O)N[C@H](CC(C)C)C(=O)N[C@@H](Cc1c[nH]c2ccccc12)C(=O)N[C@H](CC(C)C)C(=O)N[C@@H](Cc1c[nH]c2ccccc12)C(=O)NCCO)C(C)C)[C@H](C)O)C(C)C)C(C)C [compound 5482] (For-VGA[dL]A[dV]V[dT]W[dV]W[dL]W[dL]W-NHCH2CH2OH)", "antibacterial activity": "-"}
{"molecule": "CC(C)C[C@@H](NC(=O)[C@H](C)NC(=O)CNC(=O)[C@@H](NC=O)C(C)C)C(=O)N[C@@H](C)C(=O)N[C@@H](C(=O)N[C@H](C(=O)N[C@H](CC(C)C)C(=O)N[C@@H](Cc1c[nH]c2ccccc12)C(=O)N[C@H](CC(C)C)C(=O)N[C@@H](Cc1c[nH]c2ccccc12)C(=O)N[C@@H](C(=O)N[C@@H](Cc1c[nH]c2ccccc12)C(=O)N[C@H](CC(C)C)C(=O)N[C@@H](Cc1c[nH]c2ccccc12)C(=O)NCCO)C(C)C)C(C)C)C(C)C [compound 13252] (For-VGA[dL]A[dV]V[dL]W[dL]W[dV]W[dL]W-NHCH2CH2OH)", "antibacterial activity": "-"}

* * *

System: P388 mouse leukemia cells
conditionDetails: 92 h
Where a SMILES comes first, the peptide text is derived from it. [ ]: non-standard residue; d: D form. The star is where a group is joined. NHCH2CH2OH = OCCN*; For = O=C*
assayReadout: cell viability/% (%)
One number for each entry, in %.

Input line: Entry CC(C)C[C@@H](NC(=O)[C@H](C)NC(=O)[C@H](NC(=O)[C@H](C)NC(=O)CNC(=O)[C@@H](NC=O)C(C)C)[C@H](C)O)C(=O)N[C@H](C(=O)N[C@H](CC(C)C)C(=O)N[C@@H](Cc1c[nH]c2ccccc12)C(=O)N[C@@H](C(=O)N[C@@H](Cc1c[nH]c2ccccc12)C(=O)N[C@@H](C(=O)N[C@@H](Cc1c[nH]c2ccccc12)C(=O)N[C@H](CC(C)C)C(=O)N[C@@H](Cc1c[nH]c2ccccc12)C(=O)NCCO)C(C)C)[C@H](C)O)C(C)C [compound 7015] (For-VGA[dT]A[dL]V[dL]W[dT]W[dV]W[dL]W-NHCH2CH2OH) has what cell viability/%?
Output line: 100.0
